- system_under_test: CYP3A4 (Homo sapiens)
- Construct: utilizes human liver microsomes together with isoform-specific clinical drug probes; from tissue; host or cells: human liver microsomes
- Sequence (P08684 whole entry, canonical isoform): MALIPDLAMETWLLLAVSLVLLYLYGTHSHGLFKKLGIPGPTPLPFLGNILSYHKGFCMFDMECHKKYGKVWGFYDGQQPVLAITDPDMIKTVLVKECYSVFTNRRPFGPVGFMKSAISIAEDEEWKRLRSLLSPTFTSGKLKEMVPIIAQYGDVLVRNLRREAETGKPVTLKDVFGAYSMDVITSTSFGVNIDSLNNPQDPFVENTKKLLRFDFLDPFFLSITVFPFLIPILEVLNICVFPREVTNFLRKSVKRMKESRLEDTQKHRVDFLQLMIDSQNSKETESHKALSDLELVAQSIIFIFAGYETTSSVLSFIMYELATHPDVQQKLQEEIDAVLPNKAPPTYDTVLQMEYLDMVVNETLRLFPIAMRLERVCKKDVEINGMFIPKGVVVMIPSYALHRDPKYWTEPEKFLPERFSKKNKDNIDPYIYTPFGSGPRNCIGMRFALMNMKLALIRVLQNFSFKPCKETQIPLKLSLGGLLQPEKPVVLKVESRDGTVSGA
- assay_protocol: High density DDI 3 μM cocktail screen in human liver microsomes, midazolam probe
- Assay type: in vitro ADME
- test_context: human, liver microsomes, probe midazolam, read-out: % inhibition 3A4 @ 3 μM
- Protocol: High Density Drug-Drug Interactions (DDI) 3 μM Cocktail Screen […] The substrate cocktail approach for P450 DDI utilizes human liver microsomes together with isoform-specific clinical drug probes and permits the simultaneous measurement of the inhibition of P450 1A2, 2C9, 2D6 & 3A4 activities in a single incubation. […] This method has been thoroughly tested and evaluated using standard compounds. […]

compound	inhibition at 3 µM / %
CC(C)C(=O)N1CCN(C(=O)[C@@H]2CN(c3ccc(=O)n(C)n3)C[C@H]2c2ccc(F)cc2F)CCC[C@H]1c1ccc(Cl)cc1	45.2
CC(=O)N1CCN(C(=O)[C@@H]2CN(c3ccc4nncn4n3)C[C@H]2c2ccc(Cl)cn2)CCC[C@@H]1c1ccc(Cl)cc1	80.4
COC(=O)N1CCN(C(=O)[C@@H]2CN(c3ccc(=O)n(C)n3)C[C@H]2c2ccc(F)cc2F)CCCC1c1ccc(Cl)cc1 (mixture of isomers)	70.5

This collection of values is drawn from patent US8592403B2.
